Would you kindly list MIC for each of these compounds?
test system: Staph aureus 1146; experiment: MIC, microtiter broth dilution (CLSI M7-A7), Assay 1, Table 12 column B, no serum; format: cell-based, Staphylococcus aureus; conditions: Staphylococcus aureus, 1146, Staph aureus 1146, Assay 1, no serum

Quick one: give measured MIC for COc1ccc2nccc(C(O)CC[C@@H]3CCN(C4CC(Oc5ccccn5)C4)C[C@@H]3C(=O)O)c2c1 (stereo partly shown) > 64 µg/mL

Quick one: give measured MIC for COc1ccc2nccc(C(F)CC[C@@H]3CCN(C4CC(c5ccccc5)C4)C[C@@H]3C(=O)O)c2c1 (stereo partly shown) ≤ 0.0625 µg/mL

Quick one: give measured MIC for COc1ccc2nccc([C@@H](O)CC[C@@H]3CCN(C4CC(c5cccc(Cl)c5F)C4)C[C@@H]3C(=O)O)c2c1 (stereo partly shown) ≤ 0.0625 µg/mL

Quick one: give measured MIC for COc1ccc2ncc(Cl)c(CCCC3(C(=O)O)CCN(C4CC(c5cc(F)ccc5F)C4)C3)c2c1 (stereo not shown) < 0.0625 µg/mL

----------
system: Staph aureus 1146; assay: MIC, microtiter broth dilution (CLSI M7-A7), Assay 1, Table 12 column B, no serum; format: cell-based, Staphylococcus aureus; conditions: Staphylococcus aureus, 1146, Staph aureus 1146, Assay 1, no serum
Would you kindly list MIC for each of these molecules?

Quick one: give measured MIC for COc1ccc2nccc([C@@H](O)CC[C@@H]3CCN(C4CC(c5cc(C)ccc5F)C4)C[C@@H]3C(=O)O)c2c1 (stereo partly drawn) ≤ 0.0625 µg/mL

Quick one: give measured MIC for CCOCCc1noc(C2CC(N3CC[C@@H](CCC(O)c4ccnc5ccc(OC)cc45)[C@@H](C(=O)O)C3)C2)n1 (stereo partly drawn) > 64 µg/mL

Quick one: give measured MIC for COc1ccc2ncc(F)c(C(O)CC[C@@H]3CCN(C4CC(c5c(F)cccc5F)C4)C[C@@H]3C(=O)O)c2n1 (stereo partly drawn) < 0.0625 µg/mL

Quick one: give measured MIC for COc1ccc2nccc(C(O)CC[C@@H]3CCN(C4CC(c5ccccc5)C4C)C[C@@H]3C(=O)O)c2c1 (stereo partly drawn) ≤ 0.0625 µg/mL

Quick one: give measured MIC for COc1ccc2ncc(Cl)c(C(O)CC[C@@H]3CCN(C4CC(c5ccccc5)C4)C[C@@H]3C(=O)O)c2c1 (stereo partly drawn) < 0.0625 µg/mL

Quick one: give measured MIC for COc1ccc2nccc(C(O)CC[C@@H]3CCN(C4CC(c5ccc(OC)c(OC)c5)C4)C[C@@H]3C(=O)O)c2c1 (stereo partly drawn) > 64 µg/mL

Quick one: give measured MIC for COc1ccc2ncc(F)c(C(O)CC[C@@H]3CCN(C4CC(c5cc(F)ccc5F)C4)C[C@@H]3C(=O)O)c2c1 (stereo partly drawn) [Example 39] ≤ 0.0625 µg/mL

Quick one: give measured MIC for COc1ccc2nccc([C@@H](O)CC[C@@H]3CCN(C4CC(c5cc(F)ccc5F)C4)C[C@@H]3C(=O)O)c2c1 (stereo partly drawn) ≤ 0.0625 µg/mL

Quick one: give measured MIC for COc1ccc2nccc(C(O)CC[C@@H]3CCN(C4CC(c5c(F)cccc5F)C4)C[C@@H]3C(=O)O)c2c1 (single isomer, unassigned) ≤ 0.125 µg/mL
